assay: folding stability dG unfold from trypsin proteolysis; higher = more stable
Respond with TRUE for folding stability dG unfold values of 2 kcal/mol and above, FALSE for values below.

// query Tell me whether folding stability dG unfold is at least 2 kcal/mol here: SAGGSAGGSAGGDPKAKPKKYYLIDLNARLVGVEVDPETGELTVTYELEGATLTLRFEGSAGGSAGGSAGGS [r10_962_TrMRF]
// result TRUE

// query # bool: folding stability dG unfold of SAGGSAGGEIPADAEIEEFEFGGKPYFLVRFPDGTAALYERKGDKWELIATVPVPPDSRIFFKGSAGGSAGG [r6_475_TrMRF] >= 2 kcal/mol
// result FALSE

// query Please check the record SAGGSMTIVVETPEEVEKAIKALEDELKKKGIKKGDKIKKIKVEKNENGKLTVTIEVDGKKIKIEVSAGGSA [r2_120_TrROS_Hall] and state if its folding stability dG unfold is at or above 2 kcal/mol.
// result FALSE

// query Decide: is the reported value of folding stability dG unfold for SAGGSAGGNTITVFMPYSQARELAEELRDEGITVDIQPYPDWMFITVEIKVPKIDPEDNPDNKDSAGGSAGG [r6_392_TrROS] equal to or greater than 2 kcal/mol?
// result FALSE

// query Item SPPVRARIRVERLPDGSVRVELEVEFPDGVRVRIETLEAPPETGVVRVRARFFPPDGSSVEFEFTFPLLRSA [r9_1179_TrMRF] with folding stability dG unfold of 2 kcal/mol or above?
// result TRUE

// query Quick check, folding stability dG unfold >= 2 kcal/mol? SAGGSAGGSAGGSKPKMYILKIKIKVEVKYDKETNEIVEEEIEIEIEIIEVKPGEKLELSAGGSAGGSAGGS [r4_175_TrROS_Hall]
// result FALSE

// query Quick check, folding stability dG unfold >= 2 kcal/mol? SAGGSAGGSAEPVRLVVVTPGFPDGPPIPVEELEALLEAEDVTVVDPFTIPELGYVVLLVEASAGGSAGGSA [r18_466_TrMRF]
// result FALSE

// query Hi, just wondering whether SAGGKKKKVKKIKVKVKIKLKNGEEVTITEAYVLPDGTVIIKVEVTKPDGSKETKTFTIPLKDIEIESAGGS [r16_498_TrROS_Hall] shows folding stability dG unfold of 2 kcal/mol or higher.
// result TRUE
